SYSTEM_NAME: casein kinase 1ε (Homo sapiens, UniProt P49674)
Sequence (P49674 whole entry): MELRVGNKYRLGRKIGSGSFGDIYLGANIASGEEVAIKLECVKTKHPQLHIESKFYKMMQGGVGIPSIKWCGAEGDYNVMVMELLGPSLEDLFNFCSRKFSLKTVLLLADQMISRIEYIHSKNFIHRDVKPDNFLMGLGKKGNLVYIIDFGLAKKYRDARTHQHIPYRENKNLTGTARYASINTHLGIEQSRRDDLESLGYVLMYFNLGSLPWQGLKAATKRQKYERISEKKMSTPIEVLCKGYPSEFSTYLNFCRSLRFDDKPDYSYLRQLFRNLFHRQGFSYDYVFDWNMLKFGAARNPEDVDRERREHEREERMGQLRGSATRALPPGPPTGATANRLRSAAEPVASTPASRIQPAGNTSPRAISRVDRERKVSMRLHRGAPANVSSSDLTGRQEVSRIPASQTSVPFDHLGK
pKi: −log10 of the molar value.
Label rule, in plain words: pKi of 6 and up is fulfilled, under 6 is not fulfilled.

INSERT INTO assay_data (compound, class_assignment) VALUES
  ('CCCCCNCc1ccc2[nH]c(C(N)=O)c(Sc3ccccc3)c2c1 [Im]', 'fulfilled'),
  ('CCNCc1ccc2[nH]c(C(N)=O)c(Sc3ccccc3)c2c1 [Iad]', 'fulfilled');

Say whether NCc1ccc2[nH]c(C(N)=O)c(Sc3ccccc3)c2c1 [Ia] shows pKi of 6 or more.
fulfilled

Say whether NC(=O)CC[C@H](N)C(=O)NCc1ccc2c(Sc3ccccc3)c(C(N)=O)[nH]c2c1 [IIr] shows pKi of 6 or more.
fulfilled

Say whether CCCNCc1ccc2[nH]c(C(N)=O)c(Sc3ccccc3)c2c1 [Ij] shows pKi of 6 or more.
fulfilled

Say whether NC(=O)c1[nH]c2ccc(CNC3CC4CCC3C4)cc2c1Sc1ccccc1 (stereo not shown) [It] shows pKi of 6 or more.
fulfilled

Say whether COc1cc(CNCc2ccc3c(Sc4ccccc4)c(C(N)=O)[nH]c3c2)cc(Br)c1OC [IIai] shows pKi of 6 or more.
fulfilled

Say whether NC(=O)c1[nH]c2cc(CNCc3ccccc3[N+](=O)[O-])ccc2c1Sc1ccccc1 [IIl] shows pKi of 6 or more.
not fulfilled

Say whether CCCCc1ccc(NCc2ccc3[nH]c(C(N)=O)c(Sc4ccccc4)c3c2)cc1 [Iah] shows pKi of 6 or more.
not fulfilled

Say whether NC(=O)c1[nH]c2ccc(CN3CCN(c4ncccn4)CC3)cc2c1Sc1ccccc1 [Ip] shows pKi of 6 or more.
fulfilled

Say whether NC(=O)c1[nH]c2ccc(CN3CCN(c4ccc(F)cc4)CC3)cc2c1Sc1ccccc1 [Iaa] shows pKi of 6 or more.
not fulfilled

Say whether CC(CO)NCc1ccc2[nH]c(C(N)=O)c(Sc3ccccc3)c2c1 (stereo not shown) [Ix] shows pKi of 6 or more.
fulfilled

Say whether CC(CO)(CO)NCc1ccc2[nH]c(C(N)=O)c(Sc3ccccc3)c2c1 [Iv] shows pKi of 6 or more.
fulfilled

Say whether NC(=O)c1[nH]c2cc(CNCc3ccc([N+](=O)[O-])cc3)ccc2c1Sc1ccccc1 [IId] shows pKi of 6 or more.
fulfilled
